Cited source for all entries: patent US9586945B2

Target: human GlyT1c transporter (Homo sapiens (Human), UniProt P48067)
Sequence (P48067 whole entry): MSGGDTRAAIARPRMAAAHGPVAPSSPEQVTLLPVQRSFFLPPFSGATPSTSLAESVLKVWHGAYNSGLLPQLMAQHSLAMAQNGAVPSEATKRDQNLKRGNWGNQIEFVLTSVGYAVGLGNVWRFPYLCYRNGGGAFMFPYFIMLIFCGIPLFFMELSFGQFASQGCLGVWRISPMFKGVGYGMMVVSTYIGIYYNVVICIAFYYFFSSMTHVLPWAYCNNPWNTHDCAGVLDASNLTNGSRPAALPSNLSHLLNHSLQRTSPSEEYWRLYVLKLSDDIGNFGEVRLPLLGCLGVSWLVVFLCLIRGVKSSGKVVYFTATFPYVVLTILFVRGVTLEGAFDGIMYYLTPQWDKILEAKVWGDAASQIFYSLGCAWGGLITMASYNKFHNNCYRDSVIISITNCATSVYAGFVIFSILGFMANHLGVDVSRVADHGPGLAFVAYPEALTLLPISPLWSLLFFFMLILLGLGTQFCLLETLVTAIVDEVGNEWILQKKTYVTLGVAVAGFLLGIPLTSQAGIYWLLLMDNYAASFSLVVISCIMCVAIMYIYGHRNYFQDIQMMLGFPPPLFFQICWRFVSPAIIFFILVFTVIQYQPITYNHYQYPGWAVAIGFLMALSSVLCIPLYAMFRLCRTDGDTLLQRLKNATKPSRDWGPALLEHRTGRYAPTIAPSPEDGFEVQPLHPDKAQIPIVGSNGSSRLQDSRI
Assay: Radioligand binding assay using recombinant CHO cell membranes expressing human GlyT1
Conditions: examples marked * tested as fumarate salts, read-out: radioligand binding Kiapp
pKi: −log10 of the molar value.
Listed below: pKi values for each entry.

# count of solved cases: 3
> print(dat)
                                   compound  assay.value
1  CCCS(=O)(=O)NC1CN(c2ccc3c(c2)[C@H](Cc2ccccc2)[C@H](NC2CCC2)CO3)C1 (relative stereo) [Example 32]       ≥ 6.00
2  CCCS(=O)(=O)NC1CN(c2ccc3c(c2)[C@H](Cc2ccccc2)[C@H](N2CCC2)CO3)C1 (relative stereo) [Example 3]       ≥ 7.00
3  Cn1cnc(S(=O)(=O)NC2CN(c3ccc4c(c3)C(Cc3ccccc3)C(N3CCC3)CO4)C2)c1 (stereo not shown) [Example 1]       ≥ 8.00

Now consider a different compound.
pKi recorded for this compound, CCn1cc(S(=O)(=O)NC2CN(c3cc4c(cc3F)OC[C@@H](N3CCC3)[C@H]4Cc3ccccc3)C2)nn1 (relative stereo) [Example 7] , is ≥ 7.00
